B1: TPR 5TU (parent)
chain: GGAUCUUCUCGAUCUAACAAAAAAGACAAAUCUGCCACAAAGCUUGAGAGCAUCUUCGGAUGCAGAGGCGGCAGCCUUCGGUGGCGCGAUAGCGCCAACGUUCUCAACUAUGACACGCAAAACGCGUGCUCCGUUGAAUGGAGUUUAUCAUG

variants of: B1; test: polymerase ribozyme fitness, log enrichment relative to wild type (log ratio); higher = more active; in vitro selection for triplet polymerase activity
This sample holds only a part of the variants without activity.
Please mark TRUE if the recorded polymerase ribozyme fitness (log ratio) is equal to or greater than -3, and FALSE if it falls below.

[
  {
    "mutation-key": "C35A G86U C87G A97U C105U A119U A150C",
    "discrete-label": "FALSE"
  },
  {
    "mutation-key": "G92U C103U G136U",
    "discrete-label": "FALSE"
  },
  {
    "mutation-key": "U7G U15G U56G C93A A115C U130G",
    "discrete-label": "FALSE"
  },
  {
    "mutation-key": "A17C U44G U61G",
    "discrete-label": "FALSE"
  },
  {
    "mutation-key": "A19U C54A G70A U82A U134G U139A",
    "discrete-label": "FALSE"
  }
]

*Q* API: above_or_equal(metric=polymerase ribozyme fitness (log ratio), cutoff=-3) for item A41C C85U
*A* TRUE

*Q* Follow-up item: C54U G86C
*A* FALSE

*Q* Similarly, A21U G84A G141A ?
*A* TRUE

*Q* Another variant: U31A A91G U144G
*A* TRUE

*Q* Consider next the variant A17C A29U C72U G81C G140U in the same way.
*A* FALSE

*Q* Then what about the variant G50A U53A C85A U109G A115G C116G G126C ?
*A* FALSE

*Q* Also check U61A G65A G67C G84U C96G G141U
*A* FALSE

*Q* Now consider C95U C96A .
*A* TRUE

*Q* And A26G C27U G46U G50U C75A ?
*A* FALSE

*Q* U6A A91C ?
*A* FALSE

*Q* # iterate: U53A C85U A137G A142C
*A* FALSE

*Q* And for A28U A29G C32U C57G ?
*A* FALSE

*Q* # repeat for U31C G143A
*A* TRUE

*Q* Now the variant G11A C27U A49G C96A C118U U145A
*A* FALSE

*Q* Then what about the variant A21C U56A C93A A121C U146G C149U ?
*A* TRUE

*Q* Okay, and A60C A91U ?
*A* FALSE
